Entries and their measured MVD δ-agonist IC50 follow.
# target_system: δ opioid receptor of the mouse isolated vas deferens (mouse) (UniProt P32300)
# Sequence (P32300 whole entry, stated change not applied): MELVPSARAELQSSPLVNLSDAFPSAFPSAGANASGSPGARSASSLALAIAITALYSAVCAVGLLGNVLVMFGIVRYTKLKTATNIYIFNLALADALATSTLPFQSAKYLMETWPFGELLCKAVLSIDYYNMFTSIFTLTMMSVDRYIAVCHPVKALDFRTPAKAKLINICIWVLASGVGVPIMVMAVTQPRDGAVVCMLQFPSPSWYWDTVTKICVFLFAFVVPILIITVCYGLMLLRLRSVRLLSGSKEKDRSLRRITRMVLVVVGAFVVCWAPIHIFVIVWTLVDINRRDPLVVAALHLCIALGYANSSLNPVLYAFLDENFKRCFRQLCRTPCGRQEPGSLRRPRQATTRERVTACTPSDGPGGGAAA
# measurement_description: cell-based or functional assay
Square brackets hold non-standard residues; d marks the D form. Primed or numbered codes have the meaning given here. Ends that are not written are not given here. * marks the point of attachment. O‑Bzl(CF3)2 = C-terminal bis(trifluoromethyl)benzyl ester; OBzl(3,5-(CF3)2) = FC(F)(F)c1cc(CO*)cc(C(F)(F)F)c1; O‑Bzl(CF3)2(3) = C-terminal O-Bzl(CF3)2 ester; Abu = CC[C@H](N)C(=O)O; Aib = CC(C)(N)C(=O)O; GABA = NCCCC(=O)O; βAla = NCCC(=O)O

- binder: "Y[dA]GW-{OBzl(3,5-(CF3)2)} [Tyr-D-Ala-Gly-Trp-O-3′,5′(CF3)2-Bzl (NP44)]"
  MVD δ-agonist IC50 [nM]: 303
- binder: "Y[dA]GF[GABA]W-{O‑Bzl(CF3)2(3)} [Tyr-DAla-Gly-Phe-γ-Abu-Trp-O-Bzl(CF3)2 (NP34)]"
  MVD δ-agonist IC50 [nM]: 67.9
- binder: "Y[dA]GF[Abu]W-{O‑Bzl(CF3)2(3)} [Tyr-DAla-Gly-Phe-α-Abu-Trp-O-Bzl(CF3)2 (NP33)]"
  MVD δ-agonist IC50 [nM]: 12.4
- binder: "Y[dA]GF[βAla]W-{O‑Bzl(CF3)2(3)} [Tyr-DAla-Gly-Phe-β-Ala-Trp-O-Bzl(CF3)2 (NP32)]"
  MVD δ-agonist IC50 [nM]: 12.6
- binder: "Y[dA]GFW-{OBzl(3,5-(CF3)2)} [Tyr-D-Ala-Gly-Phe-Trp-O-3′,5′(CF3)2-Bzl (NP36)]"
  MVD δ-agonist IC50 [nM]: 43.1
- binder: "Y[dA]GFGW-{O‑Bzl(CF3)2(3)} [Tyr-DAla-Gly-Phe-Gly-Trp-O-Bzl(CF3)2 (NP30)]"
  MVD δ-agonist IC50 [nM]: 20.9
- binder: "Y[dA]GFPW-{O‑Bzl(CF3)2} [Tyr-DAla-Gly-Phe-Pro-Trp-O-Bzl(CF3)2 (NP39)]"
  MVD δ-agonist IC50 [nM]: 84.6
- binder: "Y[dA]GF[Aib]W-{O‑Bzl(CF3)2(3)} [Tyr-DAla-Gly-Phe-Aib-Trp-O-Bzl(CF3)2 (NP41)]"
  MVD δ-agonist IC50 [nM]: 36.2
- binder: "Y[dA]GFAW-{O‑Bzl(CF3)2(3)} [Tyr-DAla-Gly-Phe-Ala-Trp-O-Bzl(CF3)2 (NP31)]"
  MVD δ-agonist IC50 [nM]: 6.4
- binder: "Y[dA]GF[dA]W-{O‑Bzl(CF3)2(3)} [Tyr-DAla-Gly-Phe-D-Ala-Trp-O-Bzl(CF3)2 (NP40)]"
  MVD δ-agonist IC50 [nM]: 58
- binder: "Y[dA]GFMW-{O‑Bzl(CF3)2} [Tyr-DAla-Gly-Phe-Met-Trp-O-Bzl(CF3)2 (NP38)]"
  MVD δ-agonist IC50 [nM]: 9.07
- binder: "Y[dA]GFLW-{O‑Bzl(CF3)2} [Tyr-DAla-Gly-Phe-Leu-Trp-O-Bzl(CF3)2 (NP37)]"
  MVD δ-agonist IC50 [nM]: 25.7
